The measured values listed here are drawn from PubChem BioAssay (NCI).

Test system: NCI-H522 lung
Experiment: NCI tumour cell line growth inhibition, 48 h; in the data active = GI50 below about 0.43 µM; inactive = the rest
Allowed answers: active, inactive

Take a look at these entries with their results.
CCC[CH2][Sn]([CH2]CCC)([O]C(=O)c1cccc(F)c1F)[O]C(=O)c1cccc(F)c1F	active
Cn1cncc1-c1c(F)cncc1NC(=O)c1c(N)nn2cc(F)cnc12	inactive
COc1cc(-c2nccc3cc4c(cc23)OCO4)cc(OC)c1OC	inactive
COc1ccccc1C1C(C#N)=C(N)Oc2cc(O)ccc21 (stereo not drawn)	inactive
C=C1C(=O)O[C@H]2[C@H]1CC/C(COC(=O)NCCc1cccc(OC)c1)=C\CC[C@@]1(C)O[C@@H]21	inactive

query: // outcome(item) with item = Cc1nc(Sc2nc3ccc([N+](=O)[O-])cc3s2)sc1C
result: inactive

query: // outcome(item) with item = COc1ccc2c(c1)O/C(=C\c1cccc(OCC(=O)Nc3nc(C)c(C)s3)c1)C2=O
result: inactive

query: // outcome(item) with item = CCOc1ccc(C(C)=O)cc1NC(=O)c1cccc(-c2nnn(CC)n2)c1
result: active

query: // outcome(item) with item = O=C(Oc1ccccc1)C(Br)C(Br)c1ccccc1 (stereo not drawn)
result: inactive

query: // outcome(item) with item = Oc1c(O)c(Cl)c(Cl)c(Cl)c1Cl
result: inactive
